# testSystem: recombinant eIF4E (Homo sapiens (Human))
# experimentSummary: Fluorescence polarization competition assay for eIF4E binding potency
# experimentalParameters: inhibition of eIF4E/EDA-m7GDP-ATTO-550 binding by 50%; Table 4B calculated values; read-out: IC50
readoutLabel: pIC50
Scale: pIC50 equals -log10([C]), with [C] in mol/L.

Guide cases for pIC50, answers given:
{"structureAsSmiles": "Cc1nc2c(C#N)cc(C(F)F)c(C#N)c2c(=O)n1CCOc1ccc(Cl)cc1-c1ccnc2c(C(=O)O)csc12", "pIC50": 7.28}
{"structureAsSmiles": "Cc1cc(-c2cc(Cl)ccc2OCCn2c(C)nc3cnc(N4CCC(=O)C4)c(C#N)c3c2=O)c2scc(C(=O)O)c2n1", "pIC50": 8.23}
{"structureAsSmiles": "Cc1nc2cc(C(F)(F)F)cc(C#N)c2c(=O)n1CCOc1ccc(Cl)cc1-c1nsc2c(C(=O)O)csc12", "pIC50": 6.24}
{"structureAsSmiles": "O=C(O)c1cccc(-c2cc(Cl)ccc2OCCc2ccnc3nc(Nc4ccccc4)[nH]c(=O)c23)c1", "pIC50": 7.38}
{"structureAsSmiles": "COC1CN(c2c(Cl)cc3nc(C)n(CCOc4ccc(Cl)cc4-c4cc(C)nc5c(C(=O)O)csc45)c(=O)c3c2C#N)C1", "pIC50": 7.72}
{"structureAsSmiles": "Cc1nc2cnc(OC3CCN(CC(F)(F)F)CC3)c(C#N)c2c(=O)n1CCOc1ccc(Cl)cc1-c1ccnc2c(C(=O)O)csc12", "pIC50": 7.87}

Now take the following compound into account.
## Task What value of measured pIC50 is listed for Cc1cc(-c2cc(Cl)ccc2OCCn2c(C)nc3cc(Cl)c(NC(C)(C)C)c(C#N)c3c2=O)c2scc(C(=O)O)c2n1 ?
## Result 7.78

----------
Examples of molecules with documented pIC50 follow.
# testSystem: recombinant eIF4E (Homo sapiens (Human))
# experimentSummary: Fluorescence polarization competition assay for eIF4E binding potency
# experimentalParameters: inhibition of eIF4E/EDA-m7GDP-ATTO-550 binding; calculated IC50 values, Table 4B; read-out: IC50
pIC50 (log units): -log10 of the concentration in mol/L.

{"molecule": "Cc1nc2cnc(N(C)[C@H]3CC[C@H](N(C)CCF)CC3)c(C#N)c2c(=O)n1CC#Cc1ccc(Cl)cc1-c1ccnc2c(C(=O)O)csc12 [compound 1229]", "pIC50": 7.97}
{"molecule": "CCN(c1ncc2nc(C)n(CC#Cc3ccc(Cl)cc3-c3ccnc4c(C(=O)NS(=O)(=O)C5CC5)csc34)c(=O)c2c1C#N)C1CCN(C2COC2)CC1 [compound 1749]", "pIC50": 7.79}

Let us examine a further case.
## Task Report pIC50 for CCN(c1ncc2nc(C)n(CC#Cc3ccc(Cl)cc3-c3ccnc4c(C(=O)NS(=O)(=O)c5ccncc5)csc34)c(=O)c2c1C#N)C1CCN(C2CC(F)(F)C2)CC1 [compound 1838] tested on recombinant eIF4E (Homo sapiens (Human)).
## Result 7.91

----------
# testSystem: recombinant eIF4E (Homo sapiens (Human), UniProt P06730)
# Sequence (P06730 whole entry): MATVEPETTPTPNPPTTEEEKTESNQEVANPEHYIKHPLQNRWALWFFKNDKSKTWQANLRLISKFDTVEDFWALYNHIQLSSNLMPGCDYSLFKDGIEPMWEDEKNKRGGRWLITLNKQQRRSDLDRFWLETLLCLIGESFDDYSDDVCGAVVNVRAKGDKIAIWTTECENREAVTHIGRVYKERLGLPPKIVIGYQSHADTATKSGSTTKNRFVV
# experimentSummary: Fluorescence polarization competition assay for eIF4E binding potency
# experimentalParameters: inhibition of eIF4E/EDA-m7GDP-ATTO-550 binding; calculated IC50 values, Table 4B; read-out: IC50
Reported IC50 is given for each of the following compounds.

For orientation, consider the following solved cases.
{"compound": "CCN(c1ncc2nc(C)n(CC#Cc3ccc(Cl)cc3-c3ccnc4c(C(=O)NS(=O)(=O)c5ccncc5)csc34)c(=O)c2c1C#N)C1CCN(CC(F)(F)C(F)F)CC1 [compound 1708]", "IC50": "16.2 nM"}
{"compound": "CCN(c1ncc2nc(C)n(CC#Cc3ccc(Cl)cc3-c3ccnc4c(C(=O)NS(=O)(=O)c5ccccn5)csc34)c(=O)c2c1C#N)C1CCN([C@H]2C[C@@H](OC(F)(F)F)C2)CC1 [compound 1781]", "IC50": "8.32 nM"}
{"compound": "Cc1nc2cnc(N3CCN(CCOC(F)F)CC3)c(C#N)c2c(=O)n1CC#Cc1ccc(Cl)cc1-c1ccnc2c(C(=O)O)csc12 [compound 1464]", "IC50": "13.4 nM"}
{"compound": "Cc1nc2cncc(SCCN(C)C)c2c(=O)n1CCOc1ccc(Cl)cc1-c1ccnc2c(C(=O)O)csc12 [compound 1331]", "IC50": "91.8 nM"}
{"compound": "CCc1cc(-c2cc(Cl)ccc2OCCn2c(C)nc3cc(C(F)(F)F)c(CC4CCNCC4)c(C#N)c3c2=O)c2scc(C(=O)O)c2n1 [compound 1276]", "IC50": "13.5 nM"}

// below: IC50 requested for another compound
## Task # lookup: IC50 of Cc1cc(-c2cc(Cl)ccc2OCCn2c(C)nc3c(-c4ccccc4)ncc(C#N)c3c2=O)c2scc(C(=O)O)c2n1 [compound 1378]
## Result 30 nM

----------
# testSystem: recombinant eIF4E (Homo sapiens (Human), UniProt P06730)
# experimentSummary: Fluorescence polarization competition assay for eIF4E binding potency
# experimentalParameters: fluorescence polarization competition, 75 nM recombinant eIF4E, 20 nM EDA-m7GDP-ATTO-550; IC50 class; read-out: elF4E FP
Recorded measurements of IC50, one per entry

{"molecule": "Cc1nc2cc(S(C)(=O)=O)cc(C#N)c2c(=O)n1CCOc1ccc(Cl)cc1-c1ccnc2c(C(=O)O)csc12", "IC50": "< 50 nM"}
{"molecule": "Cc1cc(-c2cc(Cl)ccc2OCCn2c(C)nc3c(C)ncc(C#N)c3c2=O)c2scc(C(O)(C(F)(F)F)C(F)(F)F)c2n1", "IC50": "> 1000 nM"}
{"molecule": "COc1c(C(F)(F)F)cc2nc(C)n(CCOc3ccc(Cl)cc3-c3cc(C)nc4c(C(=O)O)csc34)c(=O)c2c1C#N", "IC50": "< 50 nM"}
{"molecule": "Cc1sc2c(-c3cc(Cl)ccc3OCCn3c(C)nc4cc(C(F)(F)F)c(N5CCN(C)CC5)c(C#N)c4c3=O)cc(CF)nc2c1C(=O)O", "IC50": "< 50 nM"}
{"molecule": "Cc1nc2ccc(C(F)F)c(C#N)c2c(=O)n1CCOc1ccc(Cl)cc1-c1cccc(C(=O)O)c1", "IC50": "< 50 nM"}
{"molecule": "Cc1nc2cnc(N3CCN(CC(F)F)C4CC43)c(C#N)c2c(=O)n1CCOc1ccc(Cl)cc1-c1ccnc2c(C(=O)O)csc12 (stereo not shown)", "IC50": "< 50 nM"}
{"molecule": "Cc1nc(N2CCN(C)CC2)c(C#N)c2c(=O)n(CCOc3ccc(Cl)cc3-c3ccnc4c(C(=O)O)csc34)c(C)nc12", "IC50": "< 50 nM"}
{"molecule": "Cc1cc(-c2cc(Cl)ccc2OCCn2c(C)nc3cc(C)c(CN4CCN(C)CC4)c(C#N)c3c2=O)c2scc(C(=O)O)c2n1", "IC50": "< 50 nM"}

Turning now to a further record.
## Task Enter reported IC50 observed with recombinant eIF4E (Homo sapiens (Human), UniProt P06730) for Cc1nc2cnc(N(C)C3CCN(CCOC(F)(F)F)CC3)c(C#N)c2c(=O)n1CC#Cc1ccc(Cl)cc1-c1ccnc2c(C(=O)O)csc12
## Result < 50 nM

----------
# testSystem: recombinant eIF4E (Homo sapiens (Human), UniProt P06730)
# experimentSummary: Fluorescence polarization competition assay for eIF4E binding potency
# experimentalParameters: inhibition of eIF4E/EDA-m7GDP-ATTO-550 binding by 50%; Table 4B calculated values; read-out: IC50
readoutLabel: pIC50
To interpret pIC50, take it as minus log10 of a concentration measured in moles per litre.

{"compound": "C#Cc1nc2c(=O)n(CCOc3ccc(Cl)cc3-c3cc(C)nc4c(C(=O)O)csc34)c(C)nc2cc1C(F)(F)F [compound 783]", "readoutLabel": "pIC50", "valueObserved": 7.83}
{"compound": "Cc1nc2c(N3C4CCC3CN(C)C4)ncc(C#N)c2c(=O)n1CCOc1ccc(Cl)cc1-c1ccnc2c(C(=O)O)csc12 [compound 857]", "readoutLabel": "pIC50", "valueObserved": 8.34}

## Task # get_value(readout='pIC50', item= Cc1nc(-c2ccccc2C(F)(F)F)c(C#N)c2c(=O)n(CCOc3ccc(Cl)cc3-c3ccnc4c(C(=O)O)csc34)c(C)nc12 [compound 1148] )
## Result 7.45

## Task Which pIC50 is listed for Cc1nc2cc(OC(F)F)c(Cl)c(C#N)c2c(=O)n1CCOc1ccc(Cl)cc1-c1ccnc2c(C(=O)O)csc12 [compound 537] ?
## Result 7.33

## Task Give its pIC50 value. Item: Cc1ccc(-c2c(C(F)(F)F)cc3nc(C)n(CCOc4ccc(Cl)cc4-c4cc(C)nc5c(C(=O)O)csc45)c(=O)c3c2C#N)c(C)n1 [compound 349]
## Result 8.23

## Task Would you mind telling me what pIC50 value was observed for Cc1cc(-c2cc(Cl)ccc2OCCn2c(C)nc3c(ccc4cnncc43)c2=O)c2scc(C(=O)O)c2n1 [compound 671] ?
## Result 7.11

## Task Name the recorded pIC50 for Cc1nc2cc(F)cc(C#N)c2c(=O)n1CCOc1ccc(Cl)cc1-c1cccc(C(=O)O)c1 [compound 167] .
## Result 7.00

## Task Any idea what its pIC50 is? The compound is Cc1cc(-c2cc(Cl)ccc2OCCn2c(C)nc3cc(C(F)(F)F)c(N4CCN(C)CC4)c(C#N)c3c2=O)c2scc(C(O)C(F)(F)F)c2n1 (stereo not shown) [compound 1080]
## Result 6.98

## Task I would be grateful if you could share the reported pIC50 for Cc1c(Cl)c2cc(C(F)(F)F)cc(C#N)c2c(=O)n1CCOc1ccc(Cl)cc1-c1ccnc2c(C(=O)O)csc12 [compound 218] .
## Result 7.77

## Task Requested read-out: pIC50. Entry: Cc1ccc(N(C)c2c(Cl)cc3nc(C)n(CCOc4ccc(Cl)cc4-c4cc(C)nc5c(C(=O)O)csc45)c(=O)c3c2C#N)cn1 [compound 959]
## Result 7.83

## Task Quick check: pIC50 of O=C(O)c1cccc(-c2cc(Cl)ccc2OCCn2ccc3cccnc3c2=O)c1 [compound 7] ?
## Result 4.92

## Task Need pIC50 of Cc1cc(-c2cc(Cl)ccc2OCCn2c(C)nc3cc(Cl)c(N4CC(C(F)(F)F)C4)c(C#N)c3c2=O)c2scc(C(=O)O)c2n1 [compound 689] , thanks.
## Result 7.94

## Task For COc1ccc(-c2c(Cl)cc3nc(C)n(CCOc4ccc(Cl)cc4-c4cc(C)nc5c(C(=O)O)csc45)c(=O)c3c2C#N)cn1 [compound 1061] , what is its reported pIC50?
## Result 8.07
